# ASSAY_TARGET: peripheral anionic site (PAS) of Electrophorus electricus AChE (EeAChE) (Electrophorus electricus)
# Construct: purchased Sigma-Aldrich type VI-S
# Sequence (O42275 24-633): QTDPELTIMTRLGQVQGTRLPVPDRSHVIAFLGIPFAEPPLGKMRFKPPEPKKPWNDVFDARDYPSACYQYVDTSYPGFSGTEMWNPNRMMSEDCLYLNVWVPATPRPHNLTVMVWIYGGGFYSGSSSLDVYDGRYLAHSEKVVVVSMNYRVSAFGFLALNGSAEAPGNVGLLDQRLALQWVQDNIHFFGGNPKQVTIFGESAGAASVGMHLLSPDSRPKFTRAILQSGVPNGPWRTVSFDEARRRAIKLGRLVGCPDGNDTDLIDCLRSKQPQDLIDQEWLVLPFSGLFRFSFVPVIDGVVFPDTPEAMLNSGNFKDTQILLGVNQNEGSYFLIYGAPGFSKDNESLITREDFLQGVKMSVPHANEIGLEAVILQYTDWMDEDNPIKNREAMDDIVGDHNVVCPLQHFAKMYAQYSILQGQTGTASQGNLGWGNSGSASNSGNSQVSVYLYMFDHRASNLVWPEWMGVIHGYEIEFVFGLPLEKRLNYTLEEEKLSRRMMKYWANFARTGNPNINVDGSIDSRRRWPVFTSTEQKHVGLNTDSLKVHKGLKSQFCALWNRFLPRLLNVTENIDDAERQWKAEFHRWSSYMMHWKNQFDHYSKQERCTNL
# TEST_NAME: Propidium displacement from the EeAChE PAS (fluorescence)
# Type: binding
# CONDITION_NOTES: compound concentration 20 µM; EeAChE 7 μM, propidium iodide 8 μM, Tris-HCl pH 8.0; n.a. = not active
Propidium Displacement, (%) values by entry
Field format: number, assumed %, no unit text.

INSERT INTO results (smiles_str, assay_value) VALUES
  ('C=C[c-]1cccc1.[Fe+2].c1ccc(-c2cccc(-[c-]3cccc3)n2)nc1', 9.7);

// moving on: another record for Propidium Displacement, (%)
Q) What measured Propidium Displacement, (%) goes with [Fe+2].c1cc[cH-]c1.c1ccc(-c2cccc(-[c-]3cccc3)n2)nc1 ?
A) 11.1

----------
# TEST_NAME: Ferric reducing antioxidant power (FRAP) assay
# CONDITION_NOTES: Trolox equivalents; acetate buffer pH 3.6, 1 h, 37 °C
Response key: yes means Ferric Reducing Antioxidant Power, TE >= 2; no means Ferric Reducing Antioxidant Power, TE < 2.

Field: example entries. Status: answers known.
INSERT INTO measurements (compound, class_name) VALUES
  ('C=C(C)[c-]1cccc1.[Fe+2].c1ccc2c(-[c-]3cccc3)c3ccccc3nc2c1 [5c]', 'yes'),
  ('[Fe+2].c1cc[cH-]c1.c1ccc(-c2cccc(-[c-]3cccc3)n2)nc1 [1d]', 'no'),
  ('[Fe+2].c1cc[cH-]c1.c1ccc2c(-[c-]3cccc3)c3ccccc3nc2c1 [1c]', 'no'),
  ('Cc1c(C)c2c(c(C)c1O)CCC(C)(C(=O)O)O2 (centres unmarked) [Trolox, reference compound]', 'no'),
  ('C=C(C)[c-]1cccc1.[Fe+2].c1cc[cH-]c1 [compound 8, isopropenylferrocene, reference compound]', 'no'),
  ('C=C(C)[c-]1cccc1.[Fe+2].c1ccc(-[c-]2cccc2)nc1 [5a]', 'yes');

Q) Test whether the compound C=C[c-]1cccc1.[Fe+2].c1ccc2nc(-[c-]3cccc3)ccc2c1 [7b, 1-(Quinolin-2-yl)-1′-Vinylferrocene] records Ferric Reducing Antioxidant Power, TE of 2 or higher.
A) yes

Q) Test whether the compound C=C(C)[c-]1cccc1.[Fe+2].c1ccc2nc(-[c-]3cccc3)ccc2c1 [5b] records Ferric Reducing Antioxidant Power, TE of 2 or higher.
A) yes

----------
# System: porcine (Sus scrofa) liver CES (SsCES)
# TEST_NAME: Inhibition of SsCES (spectrophotometric, 4-NPA substrate)
# Type: biochemical
# CONDITION_NOTES: K/Na-phosphate buffer pH 8.0, 25 °C; mean ± SEM, n = 3
VALUE_KIND: pIC50
// pIC50 here means minus log10 of the molar concentration (mol/L)

Q) What measured pIC50 goes with O=[N+]([O-])c1ccc(OP(=O)(O)Oc2ccc([N+](=O)[O-])cc2)cc1 [BNPP, bis-4-nitrophenyl phosphate, reference compound] ?
A) 5.74

----------
# TEST_NAME: Ferric reducing antioxidant power (FRAP) assay;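 on Exp. FRAP, TE: same experimental FRAP TE values reprinted in Table 4 beside calculated BDE and IP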
# CONDITION_NOTES: Water; Table 4
VALUE_KIND: Exp. FRAP, TE
Respond numerically, and do not add a unit to the figure.

Past entries and their recorded results:
INSERT INTO assay_data (compound, value_kind, assay_value) VALUES
  ('[Fe+2].c1cc[cH-]c1.c1ccc2c(-[c-]3cccc3)c3ccccc3[nH+]c2c1 [1cp]', 'Exp. FRAP, TE', 1.59),
  ('C=C[c-]1cccc1.[Fe+2].c1cc[cH-]c1 [compound 9, vinylferrocene, reference compound]', 'Exp. FRAP, TE', 1.04),
  ('C=C[c-]1cccc1.[Fe+2].c1ccc2c(-[c-]3cccc3)c3ccccc3[nH+]c2c1 [7cp]', 'Exp. FRAP, TE', 1.36);

Q) What measured Exp. FRAP, TE goes with C=C(C)[c-]1cccc1.[Fe+2].c1cc[cH-]c1 [compound 8, isopropenylferrocene, reference compound] ?
A) 1.10

----------
pIC50 values by entry
# ASSAY_TARGET: equine (Equus caballus) serum BChE (EcBChE) (Equus caballus)
# Construct: equine (Equus caballus) serum BChE (EcBChE)
# Sequence (P81908 whole entry): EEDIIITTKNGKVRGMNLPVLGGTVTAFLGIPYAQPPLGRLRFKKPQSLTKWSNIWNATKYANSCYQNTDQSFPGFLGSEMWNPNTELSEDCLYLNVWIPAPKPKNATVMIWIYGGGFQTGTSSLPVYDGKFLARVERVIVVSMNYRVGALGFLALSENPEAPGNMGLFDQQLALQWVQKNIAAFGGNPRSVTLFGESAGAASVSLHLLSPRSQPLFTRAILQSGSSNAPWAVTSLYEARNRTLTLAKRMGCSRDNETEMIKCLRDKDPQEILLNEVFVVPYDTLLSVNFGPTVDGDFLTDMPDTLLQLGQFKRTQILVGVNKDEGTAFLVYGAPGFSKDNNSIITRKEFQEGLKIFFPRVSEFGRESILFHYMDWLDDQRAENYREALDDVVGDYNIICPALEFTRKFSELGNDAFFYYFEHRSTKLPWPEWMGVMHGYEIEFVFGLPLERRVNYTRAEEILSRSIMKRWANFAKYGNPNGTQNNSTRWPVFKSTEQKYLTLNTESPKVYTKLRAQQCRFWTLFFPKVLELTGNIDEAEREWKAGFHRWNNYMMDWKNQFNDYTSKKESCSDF
# TEST_NAME: Inhibition of EcBChE (spectrophotometric, BTCh iodide substrate)
# CONDITION_NOTES: K/Na-phosphate buffer pH 7.5, 25 °C; mean ± SEM, n = 3
// pIC50 here means minus log10 of the molar concentration (mol/L)

Past entries and their recorded results:
INSERT INTO assay_data (compound, value_kind, assay_value) VALUES
  ('C=C(C)[c-]1cccc1.[Fe+2].c1ccc2c(-[c-]3cccc3)c3ccccc3nc2c1 [5c]', 'pIC50', 4.01),
  ('[Fe+2].c1cc[cH-]c1.c1ccc2nc(-[c-]3cccc3)ccc2c1 [1b]', 'pIC50', 5.57),
  ('C=C[c-]1cccc1.[Fe+2].c1ccc(-[c-]2cccc2)nc1 [7a, 1-(Pyridin-2-yl)-1′-Vinylferrocene]', 'pIC50', 4.70),
  ('C=C(C)[c-]1cccc1.[Fe+2].c1ccc(-c2cccc(-[c-]3cccc3)n2)nc1 [5d]', 'pIC50', 5.31);

Q) Lab note: need pIC50 for C=C[c-]1cccc1.[Fe+2].c1ccc(-c2cccc(-[c-]3cccc3)n2)nc1 [7d] on equine (Equus caballus) serum BChE (EcBChE) (Equus caballus), anyone have it?
A) 5.10

Q) Lab note: need pIC50 for C=C(C)[c-]1cccc1.[Fe+2].c1ccc2nc(-[c-]3cccc3)ccc2c1 [5b] on equine (Equus caballus) serum BChE (EcBChE) (Equus caballus), anyone have it?
A) 5.00

Q) Lab note: need pIC50 for [Fe+2].c1cc[cH-]c1.c1ccc(-c2cccc(-[c-]3cccc3)n2)nc1 [1d] on equine (Equus caballus) serum BChE (EcBChE) (Equus caballus), anyone have it?
A) 4.86

Q) Lab note: need pIC50 for C=C[c-]1cccc1.[Fe+2].c1ccc2nc(-[c-]3cccc3)ccc2c1 [7b, 1-(Quinolin-2-yl)-1′-Vinylferrocene] on equine (Equus caballus) serum BChE (EcBChE) (Equus caballus), anyone have it?
A) 5.43

----------
# ASSAY_TARGET: peripheral anionic site (PAS) of Electrophorus electricus AChE (EeAChE) (Electrophorus electricus)
# Construct: purchased Sigma-Aldrich type VI-S
# TEST_NAME: Propidium displacement from the EeAChE PAS (fluorescence)
# Assay type: binding
# CONDITION_NOTES: compound concentration 20 µM; EeAChE 7 μM, propidium iodide 8 μM, Tris-HCl pH 8.0; n.a. = not active
VALUE_KIND: Propidium Displacement, (%)

Past entries and their recorded results:
INSERT INTO measurements (compound, assay_value) VALUES
  ('C=C(C)[c-]1cccc1.[Fe+2].c1ccc(-c2cccc(-[c-]3cccc3)n2)nc1 [5d]', '8.2 ± 0.6%'),
  ('[Fe+2].c1cc[cH-]c1.c1cc[cH-]c1 [Fc, ferrocene]', 'zero'),
  ('C=C[c-]1cccc1.[Fe+2].c1ccc2nc(-[c-]3cccc3)ccc2c1 [7b, 1-(Quinolin-2-yl)-1′-Vinylferrocene]', '7.7 ± 0.6%'),
  ('C=C(C)[c-]1cccc1.[Fe+2].c1ccc2c(-[c-]3cccc3)c3ccccc3nc2c1 [5c]', '10.5 ± 0.9%');

Q) What measured Propidium Displacement, (%) goes with [Fe+2].c1cc[cH-]c1.c1ccc(-[c-]2cccc2)nc1 [1a] ?
A) zero

----------
# TEST_NAME: Ferric reducing antioxidant power (FRAP) assay
# CONDITION_NOTES: Trolox equivalents; acetate buffer pH 3.6, 1 h, 37 °C
Ferric Reducing Antioxidant Power, TE values by entry
Respond numerically, and do not add a unit to the figure.

Past entries and their recorded results:
INSERT INTO results (compound, assay_value) VALUES
  ('[Fe+2].c1cc[cH-]c1.c1cc[cH-]c1', 0.79),
  ('C=C[c-]1cccc1.[Fe+2].c1cc[cH-]c1 [compound 9, vinylferrocene, reference compound]', 1.04),
  ('C=C[c-]1cccc1.[Fe+2].c1ccc(-[c-]2cccc2)nc1', 2.13);

Q) What measured Ferric Reducing Antioxidant Power, TE goes with [Fe+2].c1cc[cH-]c1.c1ccc2nc(-[c-]3cccc3)ccc2c1 ?
A) 2.21

----------
# TEST_NAME: ABTS radical cation scavenging activity assay
# CONDITION_NOTES: ABTS^•+ 100 μM, ethanol, 1 h
pIC50: −log10 of the molar value.
Response key: Condition met means pIC50 >= 5; Condition not met means pIC50 < 5.

Field: example entries. Status: answers known.
INSERT INTO assay_data (molecule, class_name) VALUES
  ('C=C(C)[c-]1cccc1.[Fe+2].c1ccc(-c2cccc(-[c-]3cccc3)n2)nc1 [5d]', 'Condition not met'),
  ('C=C(C)[c-]1cccc1.[Fe+2].c1ccc2c(-[c-]3cccc3)c3ccccc3nc2c1 [5c]', 'Condition not met'),
  ('C=C[c-]1cccc1.[Fe+2].c1ccc2nc(-[c-]3cccc3)ccc2c1 [7b, 1-(Quinolin-2-yl)-1′-Vinylferrocene]', 'Condition met'),
  ('[Fe+2].c1cc[cH-]c1.c1ccc2nc(-[c-]3cccc3)ccc2c1 [1b]', 'Condition met'),
  ('C=C[c-]1cccc1.[Fe+2].c1ccc(-c2cccc(-[c-]3cccc3)n2)nc1 [7d]', 'Condition not met');

Q) Test whether the molecule [Fe+2].c1cc[cH-]c1.c1ccc2c(-[c-]3cccc3)c3ccccc3nc2c1 [1c] records pIC50 of 5 or higher.
A) Condition not met

Q) Test whether the molecule [Fe+2].c1cc[cH-]c1.c1cc[cH-]c1 [Fc, ferrocene] records pIC50 of 5 or higher.
A) Condition not met

Q) Test whether the molecule C=C[c-]1cccc1.[Fe+2].c1ccc2c(-[c-]3cccc3)c3ccccc3nc2c1 [7c, 1-(Acridin-9-yl)-1′-Vinylferrocene] records pIC50 of 5 or higher.
A) Condition met
